# Tested on: HCC-2998 colon
# testProtocol: NCI-60 one-dose screen, 48 h
# assayContext: 10 µM unless noted
Compounds without any hit were thinned out: in the full panel of roughly 83,000, 20% have a hit. The source made the active and inactive calls. Rule for the calls: active = growth percent below 10; inactive = the rest.
Outcome codes: yes for active, no for inactive

| molecule | assaySystem | classAssignment |
| --- | --- | --- |
| Oc1c(CNCCNCc2cc(Cl)cc(Cc3ccccc3)c2O)cc(Cl)cc1Cc1ccccc1 | HCC-2998 colon | no |
| CC[C@]1(O)CC2CN(CCc3c([nH]c4ccccc34)[C@@](C(=O)OC)(c3cc4c(cc3OC)N(C=O)[C@H]3[C@@](O)(C(=O)OC)[C@H](OC(C)=O)[C@]5(CC)C=CCN6CC[C@]43[C@@H]65)C2)C1 (stereo partly specified) | HCC-2998 colon | yes |
| Nc1nc(SCc2cccc([N+](=O)[O-])c2)c2[nH]cnc2n1 | HCC-2998 colon | no |
| Cn1cc(-c2nnc(-c3cn(C)c4ncc(Br)cc34)s2)c2cc(Br)ccc21 | HCC-2998 colon | no |
| O=C(NCCCNC(=O)OCc1ccc2c(Br)cc(Br)c(O)c2n1)OCc1ccc2c(Br)cc(Br)c(O)c2n1 | HCC-2998 colon | yes |
| COc1c(C(C)=O)c(OCCCCOc2c(C(C)=O)c(OC)c3ccoc3c2OC)c(OC)c2occc12 | HCC-2998 colon | no |
| CC1(C)CC[C@]2(C(=O)O)CC[C@]3(C)C(=CC[C@@H]4[C@@]5(C)C/C(=C/c6cccnc6)[C@H](O)C(C)(C)[C@@H]5CC[C@]43C)[C@@H]2C1 | HCC-2998 colon | yes |
| O=C(C[n+]1ccn(CC(OCc2ccc(Cl)cc2Cl)c2ccc(Cl)cc2Cl)c1)c1ccc(F)cc1 (stereo unspecified) | HCC-2998 colon | yes |
| O=C(O)c1cc([N+](=O)[O-])ccc1Br | HCC-2998 colon | no |
| Cc1ccc2c(c1)/C(=N\N=C/c1cn(C(C)C)c3ccccc13)C(=O)N2 | HCC-2998 colon | no |
| N#C/C(C(=O)c1ccccc1)=C1/C(=O)Nc2ccc(F)cc21 | HCC-2998 colon | no |

* * *

# System: HOP-62 NSCLC
# testProtocol: NCI-60 one-dose screen, 48 h
# assayContext: 10 µM unless noted
About 83,000 compounds went through this panel and 20% of them were active in at least one assay; those are over-represented in the sample as a whole. Calls of active or inactive are those of the source. The calls were made as follows: active = growth percent below 10; inactive = the rest.
Outcome codes: active, inactive

| compound | assaySystem | classAssignment |
| --- | --- | --- |
| CC(C)=CCC[C@](C)(O)[C@H]1CC[C@]2(C)[C@@H]1CC[C@@H]1[C@@]3(C)CC[C@H](OC(=O)CCC(=O)O)C(C)(C)[C@@H]3CC[C@]12C | HOP-62 NSCLC | active |
| CCOC(=O)c1ccc2nc(-c3c(C)nn(-c4ccccc4)c3N3CCOCC3)[nH]c2c1 | HOP-62 NSCLC | inactive |
| O=C1Nc2ccccc2/C1=C/C(=O)c1ccc(N2CCCCC2)cc1 | HOP-62 NSCLC | inactive |
| CC1(C)CC[C@]23CC[C@]4(C)[C@H](CC[C@@H]5[C@@]6(C)C/C(=C/c7ccncc7)C(=O)C(C)(C)[C@@H]6CC[C@]54C)[C@H]2[C@H]1OC3=O | HOP-62 NSCLC | inactive |
| O=C(CCNCc1ccccc1)c1ccccc1 | HOP-62 NSCLC | inactive |
| O=S(=O)(NCc1ccccc1)c1ncnc2nc[nH]c12 | HOP-62 NSCLC | inactive |
| O=C1C(Cl)=C(Nc2ccc3cn[nH]c3c2)C(=O)c2ccccc21 | HOP-62 NSCLC | active |
| Cc1ccc(Oc2c(/C=N/NC(=O)Cn3c(=O)sc4ccccc43)c(C)nn2-c2ccccc2)cc1 | HOP-62 NSCLC | inactive |
| Cc1cnc(N)nc1OCCNC(=O)c1cccc(-c2ccc(S(=O)(=O)Nc3ccc4c(c3)N(C(=O)C3CC3)CCC4)cc2)c1 | HOP-62 NSCLC | inactive |
| Cc1cccc(C[C@H](NC(=O)Nc2ccc(Cl)cc2F)C(=O)N[C@@H]2C(=O)N3C[C@H](OC(=O)CCN(C)C)C[C@H]3C(=O)N3CCCC[C@H]3C(=O)N[C@@H](C)C(=O)N3C[C@H](C)C[C@H]3C(=O)O[C@H]2C)c1 | HOP-62 NSCLC | inactive |
| COc1ccc2c3ccnc(C(F)(F)F)c3n(CCCCN)c2c1 | HOP-62 NSCLC | inactive |
| CCCSc1nc(N)nc2nc[nH]c12 | HOP-62 NSCLC | inactive |
| COc1ccc(C2=C(c3cn(C)c4ccccc34)C(=O)OC2)cc1OC | HOP-62 NSCLC | inactive |
| C[C@@H](NC(=O)[C@@H](CC(=O)N1CCC(N2CCCCC2)CC1)N1C(=O)[C@@H](N2C(=O)OC[C@@H]2c2ccccc2)[C@H]1/C=C/c1cccc(Cl)c1)c1ccccc1 | HOP-62 NSCLC | inactive |
| CCCn1ccnc1C(O)c1ccc(OCc2ccccc2)c(OC)c1 (configuration not stated) | HOP-62 NSCLC | inactive |
| Cc1ccc(-c2cc(O)c(-c3ccc(C)cc3C)cc2O)c(C)c1 | HOP-62 NSCLC | inactive |
| Cn1cc(-c2nnc(-c3cn(C)c4ncc(Br)cc34)s2)c2cc(Br)ccc21 | HOP-62 NSCLC | inactive |
| COc1ccc(OC)c(NC=O)c1 | HOP-62 NSCLC | inactive |
| CCOC(=O)c1c[nH]n2c(=S)ncnc12 | HOP-62 NSCLC | inactive |
| Cc1ccc(NCCN2CCCCC2)c2c(=O)c3ccccc3sc12 | HOP-62 NSCLC | inactive |
| CCN(CC)CCCC(C)Nc1ccnc2cc(Cl)c(SCc3ccccc3)cc12 (configuration not stated) | HOP-62 NSCLC | active |
| Cn1cc(-c2noc(-c3cn(C)c4ncc(F)cc34)n2)c2ccccc21 | HOP-62 NSCLC | inactive |
| CCCCCn1sc(=O)n(Cc2ccc(CNC(=O)OCc3ccc4cccc(O)c4n3)cc2)c1=O | HOP-62 NSCLC | active |
| COc1ccc(C2NC(=O)C(C#N)c3c2sc2c(F)cccc32)cc1 (configuration not stated) | HOP-62 NSCLC | inactive |
| C=CCc1nc2ccccc2s1 | HOP-62 NSCLC | inactive |
| CCOC(CNC(=O)c1cccc([N+](=O)[O-])c1)OCC | HOP-62 NSCLC | inactive |
| CSc1nc(=S)c2nc(SC)n(-c3ccccc3)c2[nH]1 | HOP-62 NSCLC | inactive |

* * *

Overview of reported growth across a group of compounds:
# Tested on: SNB-75 CNS
# testProtocol: NCI-60 one-dose screen, 48 h (100 = growth as untreated, 0 = no growth, -100 = all killed)
# assayContext: 10 µM unless noted
# Experimental: Growth inhibition of the SNB-75 human tumor cell line is measured as a screen for anti-cancer activity. Cells are grown in 96 well plates and exposed to the test compound for 48 hours. Compounds are tested at a single concentration, which is 10^-5 M for most compounds. The reported endpoint is percent growth (GI% or GIPRCNT), where numbers from 0 - 100% represent growth inhibition, and numbers from -100% - 0 represent cell death. For example, a value of 40 represents 60% growth inhibition. […]
This is part of a sample that, as a whole, favours compounds with a hit. Of some 83,000 tested, about 20% had one in any assay. The source made the active and inactive calls. The calls were made as follows: active = growth percent below 10; inactive = the rest.

| compound | growth |
| --- | --- |
| Cc1cc(C)c(-c2cc(O)c(-c3c(C)cc(C)cc3C)cc2O)c(C)c1 | -10.3% (active) |
| Cc1cccc(/C=C2\N=C(c3ccccc3)N(c3ccc(S(N)(=O)=O)cc3)C2=O)c1 | 49.9% (inactive) |
| Nc1ccc(NC(=O)c2ccccc2)c2c1C(=O)c1ccccc1C2=O | 76% (inactive) |
| Cc1ccc(S(=O)(=O)NCCCNc2nccc(-c3c(-c4cccc(F)c4)nc4occn34)n2)cc1 | 73.5% (inactive) |
| CCOC(=O)/C(C#N)=C(\C)CCc1ccccc1 | 52.3% (inactive) |
| Cc1ccc(Oc2c(/C=N/NC(=O)Cn3c(=O)sc4ccccc43)c(C)nn2-c2ccccc2)cc1 | 53.4% (inactive) |
| COc1ncc(-c2ccc3nccc(C#CCCCCC(=O)O)c3c2)cc1NS(=O)(=O)c1ccc(F)cc1F | -12.5% (active) |
| O=C(Nc1cccc(F)c1)c1cc(=O)[nH]c2cc(Br)ccc12 | 43.7% (inactive) |
| CC1Cc2c(Cl)ncnc2N(C)c2ccccc21 (stereo not given) | 82.8% (inactive) |
| N#C/C(C(=O)c1ccccc1)=C1/C(=O)Nc2ccccc21 | 66.9% (inactive) |
| COc1ccc(-c2cc(-c3ccccc3)nc(SCCCCCC(=O)NO)n2)cc1 | 44.1% (inactive) |
| COc1cc(/C=C/C(=O)/C=C/c2ccc(-n3ccnc3)cc2)ccc1O | 62.3% (inactive) |
| COc1ccc2c(c1)C(C)Cc1c(ncnc1-n1cnc3ccccc31)N2C (stereo not given) | 37.5% (inactive) |
| CN(C)CCOc1ccc(/C(=C(/CCCl)c2ccccc2)c2ccccc2)cc1 | 36.8% (inactive) |
| C=C(C)[C@@H]1CC[C@]2(C(N)=O)CC[C@]3(C)[C@H](CC[C@@H]4[C@@]5(C)CC[C@H](O)C(C)(C)[C@@H]5CC[C@]43C)[C@@H]12 | -39.1% [100 µM] (active) |
| Cc1cc(NN=C(c2ccc(O)cc2)c2ccc(O)cc2)c([N+](=O)[O-])cc1[N+](=O)[O-] | 74.3% (inactive) |
| O=c1cc(-c2ccccc2)oc2cc(OCc3cn(Cc4ccc(F)cc4)nn3)cc(O)c12 | -65.9% [100 µM] (active) |
| Cn1cc(-c2nnc(-c3cn(C)c4ncc(Br)cc34)o2)c2ccccc21 | 65.8% (inactive) |
| CCn1cc(-c2cc(-c3ccc(Cl)cc3)nc(N)n2)c(-c2ccc(Br)cc2)n1 | 82.4% (inactive) |
| c1ccc(-c2nc(N3CCCNCC3)c3nc(-c4ccccc4)oc3n2)cc1 | 53.1% (inactive) |
| CNC(=O)c1cc(Oc2cccc3nc(NC(=O)Nc4cc(C(F)(F)F)cc(C(F)(F)F)c4)ccc23)ccn1 | -23.7% (active) |
| COC(=O)[C@]1(C)CC[C@]2(C)CC[C@]3(C)C(=CC(=O)[C@@H]4[C@@]5(C)CCC(=O)NC(C)(C)[C@@H]5CC[C@]43C)[C@@H]2C1 | -83.3% [100 µM] (active) |
| NS(=O)(=O)c1ccc(CCN2C(=O)/C(=C\c3ccccc3)C=C2c2ccc(Cl)cc2)cc1 | 59.3% (inactive) |
| C[n+]1cccc(NC(=O)c2ccc3ccc4ccc(C(=O)Nc5ccc[n+](C)c5)nc4c3n2)c1 | 12.8% (inactive) |
| NC(=O)c1c(NC(=O)COC(=O)Cc2ccccc2F)sc2c1CCC2 | 106% (inactive) |
